Molecular target: Muscarinic acetylcholine receptor M1 (Homo sapiens)
Sequence (whole entry): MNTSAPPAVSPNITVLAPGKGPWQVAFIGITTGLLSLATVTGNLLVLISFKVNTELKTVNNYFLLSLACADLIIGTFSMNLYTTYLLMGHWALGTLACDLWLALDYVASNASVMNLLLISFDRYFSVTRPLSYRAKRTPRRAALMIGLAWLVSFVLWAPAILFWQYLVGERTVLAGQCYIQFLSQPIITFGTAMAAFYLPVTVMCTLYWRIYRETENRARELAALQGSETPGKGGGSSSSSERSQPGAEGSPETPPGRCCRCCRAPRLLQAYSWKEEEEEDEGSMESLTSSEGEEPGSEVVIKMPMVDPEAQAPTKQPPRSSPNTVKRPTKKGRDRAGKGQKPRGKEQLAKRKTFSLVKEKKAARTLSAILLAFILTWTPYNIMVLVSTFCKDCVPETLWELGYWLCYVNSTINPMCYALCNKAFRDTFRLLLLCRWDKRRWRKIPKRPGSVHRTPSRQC
Assay: Positive allosteric modulator activity at human muscarinic M1 receptor expressed in CHO cells assessed as effect on acetylcholine-induced intracellular calcium mobilization by FLIPR assay
Assay type: functional, cell-based
Measured IP by item
Your answer should be a plain number; it is taken to be in µM.

INSERT INTO results (smiles, units, endpointvalue) VALUES
  ('Cn1cc(-c2ccc(Cn3cc(C(=O)O)c(=O)c4sccc43)nc2)cn1', 'µM', 0.34),
  ('O=C(O)c1cn(Cc2ccc(-c3cccnc3)cc2)c2ccsc2c1=O', 'µM', 0.57),
  ('Cc1ccnn1-c1ccc(Cn2cc(C(=O)O)c(=O)c3ccncc32)cc1', 'µM', 13),
  ('O=C(O)c1cn(Cc2ccc(-c3ccccc3)cc2)c2csnc2c1=O', 'µM', 3.35),
  ('O=C(O)c1cn(Cc2ccc(-c3ccsc3)cn2)c2ccsc2c1=O', 'µM', 1.66);

Then there is this compound:
Incoming: Please list IP recorded for the compound O=C(O)c1cn(Cc2ccc(-c3ccccc3)cc2)c2ccsc2c1=O
Outgoing: 0.15

====

Target: Muscarinic acetylcholine receptor M1 (Homo sapiens) (UniProt P11229)
Assay: Positive allosteric modulator activity at human muscarinic M1 receptor expressed in CHO cells assessed as effect on acetylcholine-induced intracellular calcium mobilization by FLIPR assay relative to acetylcholine
Format: functional, cell-based
Decide using Emax alone. Strictly below 80%: Met. Equal to or above 80%: Not met.

The examples below pair each entry with its known result.
INSERT INTO measurements (smiles, group) VALUES
  ('O=C(O)c1cn(Cc2ccc(-c3ccccc3)cc2)c2ccncc2c1=O', 'Met'),
  ('O=C(O)c1cn(Cc2ccc(-c3ccccc3)cc2)c2ccsc2c1=O', 'Not met'),
  ('O=C(O)c1cn(Cc2ccc(-c3ccccc3)cc2)c2nccnc2c1=O', 'Not met'),
  ('O=C(O)c1cn(Cc2ccc(-c3ccccc3)cc2)c2nnccc2c1=O', 'Met'),
  ('O=C(O)c1cn(Cc2ccc(-c3ccccc3)cc2)c2ncncc2c1=O', 'Met');

Incoming: Check if Emax falls below 80% for O=C(O)c1cn(Cc2ccc(-c3ccccc3)cc2)c2csnc2c1=O .
Outgoing: Met

Incoming: Check if Emax falls below 80% for O=C(O)c1cn(Cc2ccc(-c3ccccc3)cc2)c2cnccc2c1=O .
Outgoing: Met

Incoming: Check if Emax falls below 80% for O=C(O)c1cn(Cc2ccc(-c3ccccc3)cc2)c2ccccc2c1=O .
Outgoing: Not met

Incoming: Check if Emax falls below 80% for O=C(O)c1cn(Cc2ccc(-c3ccccc3)cc2)c2nsnc2c1=O .
Outgoing: Met

Incoming: Check if Emax falls below 80% for O=C(O)c1cn(Cc2ccc(-c3ccccc3)cc2)c2cccnc2c1=O .
Outgoing: Not met

Incoming: Check if Emax falls below 80% for O=C(O)c1cn(Cc2ccc(-c3ccccc3)cc2)c2ncccc2c1=O .
Outgoing: Met

Cited source for all entries: ChEMBL document CHEMBL1156154
